B1: ADD1 (parent)
chain: GEGTGSPPKWQIGEQEFEALMRML

Variants of: B1
Assay: protein stability index of a GFP-peptide fusion (GPS, HEK-293T) (PSI 1-6); higher = more stable;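 further: lentivirally expressed fusions sorted by FACS into six bins by GFP to DsRed ratio, PSI derived from sequencing read proportions per bin multiplied by bin number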
Settings: c terminus: a fixed tail appended
Given measured protein stability index, output 1 if it is greater than or equal to 3 and -1 if not.

VARIANT_DESCRIPTION | ASSIGNED_CLASS
G1P | 1
F17W | 1
I12T | 1
P8N | 1
Q15L | -1
S6N | -1
P7I | -1
E18Y | -1
G13V | -1
P7C | -1
G1W | -1
L20T | 1
L20C | 1
P7W | -1
M23N | 1
I12S | 1
R22N | 1
P7M | -1
W10K | 1
L20Y | 1
K9W | -1
G5C | -1
A19C | 1
S6F | -1
Q11N | 1
W10M | 1
P8D | 1
W10T | 1
W10F | 1

All values here come from the supplement of paper PMC10567573.
